Reference for the values: ChEMBL document CHEMBL1140525

Items are presented alongside their recorded inhibition.
- assay-system: Tubulin (Homo sapiens) (UniProt P68371+Q9H4B7+P0DPH7+P68366+Q13509+Q71U36+P04350+Q3ZCM7+P07437+P68363+Q9BQE3+Q6PEY2+Q13885+Q9BVA1+Q9BUF5)
- test-method-notes: Inhibition of tubulin polymerization at 40 uM
- Format: protein-complex assay
Reply numerically in %, unit not repeated.

• COc1cc2cc(OC)c1OCCCCCCOc1ccc(cc1OC(C)=O)[C@H](OC(C)=O)[C@H]2OC(C)=O (relative stereo) = 2
• COc1cc2cc(OC)c1OCCOCCOc1ccc(cc1)[C@@H](O)[C@H]2O (relative stereo) = 0
• COc1cc2cc(OC)c1OCCOCCOc1ccc(cc1O)[C@@H](O)[C@H]2O (relative stereo) = 11
• COc1cc2cc(OC)c1OCCOCCOc1ccc(cc1)[C@H](OC(C)=O)[C@H]2OC(C)=O (relative stereo) = 0
• COc1cc2cc(OC)c1OCCCCCCOc1ccc(cc1O)/C=C\2 = 0

q: Query inhibition for COc1cc2cc(OC)c1OCCOCCOc1ccc(cc1OC(C)=O)[C@@H](OC(C)=O)[C@H]2OC(C)=O (relative stereo)
a: 0
